- Measured Target: MAO-B (Homo sapiens)
- Sequence (P27338 whole entry): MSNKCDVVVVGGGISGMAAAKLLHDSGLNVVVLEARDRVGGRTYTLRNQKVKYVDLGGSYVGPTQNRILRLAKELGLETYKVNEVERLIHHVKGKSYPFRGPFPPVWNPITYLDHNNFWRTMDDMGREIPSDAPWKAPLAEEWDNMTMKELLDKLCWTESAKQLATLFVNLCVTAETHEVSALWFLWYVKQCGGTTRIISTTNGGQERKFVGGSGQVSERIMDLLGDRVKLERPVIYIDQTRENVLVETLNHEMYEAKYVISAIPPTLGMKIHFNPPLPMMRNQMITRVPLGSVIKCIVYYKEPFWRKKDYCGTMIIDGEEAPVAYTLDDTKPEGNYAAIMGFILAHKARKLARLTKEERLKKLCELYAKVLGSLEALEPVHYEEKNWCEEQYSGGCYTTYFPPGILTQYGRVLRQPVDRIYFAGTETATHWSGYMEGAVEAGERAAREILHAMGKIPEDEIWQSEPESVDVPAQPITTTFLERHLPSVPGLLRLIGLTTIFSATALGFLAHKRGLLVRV
- Assay Details: Inhibition of human MAO-B assessed as residual activity at 10 uM
- Cond: read-out: INH
Below: a set of entries, each annotated with reported activity at 10 µM.
Output spec: scalar in %, unitless text.

// below: answered molecules
CC(C#N)=C1CCN(c2ccc(N3C[C@H](Cn4ccnn4)OC3=O)cc2F)CC1 : 74.8
CC(=O)NC[C@H]1CN(c2ccc(N3CCOCC3)c(F)c2)C(=O)O1 [LINEZOLID] : 31.4
CC(C#N)=C1CCN(c2ccc(N3C[C@H](Cn4cc(F)nn4)OC3=O)cc2F)CC1 : 34.8

q: Checklist item: activity at 10 µM tested on MAO-B (Homo sapiens), entry `N#CC=C1CCN(c2ccc(N3C[C@H](Cn4cc(F)nn4)OC3=O)cc2F)CC1` , value?
a: 19.5

q: Checklist item: activity at 10 µM tested on MAO-B (Homo sapiens), entry `N#CC=C1CCN(c2ccc(N3C[C@H](Cn4ccnn4)OC3=O)cc2F)CC1` , value?
a: 111
